biological target: HIV-1 reverse transcriptase (Human immunodeficiency virus type 1 group M subtype B); construct: purified recombinant HIV-1 reverse transcriptase (RT, EC, 2.7.7.49) obtained by expression in Escherichia Coli; made in house; host or cells: Escherichia coli; assay: Inhibition of HIV-1 Reverse Transcriptase Enzyme; assay type: biochemical
Assay endpoint: IC50

INSERT INTO results (chemical_string, reported_measurement) VALUES
  ('CCc1nn(C)c(Oc2ncc(Oc3ccc(OC)cc3)cn2)c1Oc1cc(C#N)cc(C#N)c1', '0.391 µM');

* * *

biological target: HIV-1 reverse transcriptase (Human immunodeficiency virus type 1 group M subtype B); construct: purified recombinant HIV-1 reverse transcriptase (RT, EC, 2.7.7.49) obtained by expression in Escherichia Coli; made in house; host or cells: Escherichia coli; experiment: Inhibition of HIV-1 Reverse Transcriptase Enzyme; assay type: biochemical; conditions: purified recombinant HIV-1 RT expressed in Escherichia Coli; [3H]-SPA or [3H]-flashplate enzyme assay; 5% final DMSO; read-out: IC50
pIC50: −log10 of the molar value.
Assay endpoint: pIC50

INSERT INTO assay_data (molecule, reported_measurement) VALUES
  ('CCc1nn(C)c(Oc2ccccn2)c1Oc1cc(C#N)cc(C#N)c1 [Example 1]', 5.27);

Every entry's value here was drawn from patent US7230025B2.
